The measured values listed here are drawn from patent US20250250357A1.

ASSAY_TARGET: T1, human MSLN-FL-his protein (human, UniProt Q13421 296-580)
T1 construct: made in HEK293E cells, purified on nickel column; also called hMSLN-FL-his; human MSLN full-length protein; not shown: His tag
T1 sequence (Q13421 other isoform, or with tags, fused parts or gaps): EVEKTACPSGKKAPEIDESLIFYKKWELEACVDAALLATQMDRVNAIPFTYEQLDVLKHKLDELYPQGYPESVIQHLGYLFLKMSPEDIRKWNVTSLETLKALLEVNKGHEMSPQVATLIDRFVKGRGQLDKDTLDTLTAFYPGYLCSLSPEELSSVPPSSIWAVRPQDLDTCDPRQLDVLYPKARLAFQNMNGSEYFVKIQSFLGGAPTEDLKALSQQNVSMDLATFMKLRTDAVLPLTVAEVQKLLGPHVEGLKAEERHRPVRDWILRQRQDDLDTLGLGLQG
PROTOCOL_NOTES: competitive ELISA; row F1.2.12
Parameter threshold = 60%. Response is T when competition rate meets or exceeds it, else F.

>  <BINDER>
S009-F2.47.1 (antibody, human IgG1, kappa, V domains shown, human-murine chimeric antibody, human IgG1/kappa constant regions) VH: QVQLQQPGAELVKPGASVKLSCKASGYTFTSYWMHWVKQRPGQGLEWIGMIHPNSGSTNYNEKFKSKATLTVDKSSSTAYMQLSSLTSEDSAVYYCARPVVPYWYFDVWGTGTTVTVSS VL: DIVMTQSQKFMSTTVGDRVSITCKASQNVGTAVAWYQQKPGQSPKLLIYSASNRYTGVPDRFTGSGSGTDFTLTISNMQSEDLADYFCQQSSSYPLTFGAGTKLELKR

>  <ASSIGNED_CLASS>
F

$$$$
>  <BINDER>
S009-F2.13.3 (antibody, human IgG1, kappa, V domains shown, human-murine chimeric antibody, human IgG1/kappa constant regions) VH: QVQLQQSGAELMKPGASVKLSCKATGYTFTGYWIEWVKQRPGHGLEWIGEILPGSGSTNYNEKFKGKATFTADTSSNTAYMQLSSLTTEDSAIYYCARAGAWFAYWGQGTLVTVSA VL: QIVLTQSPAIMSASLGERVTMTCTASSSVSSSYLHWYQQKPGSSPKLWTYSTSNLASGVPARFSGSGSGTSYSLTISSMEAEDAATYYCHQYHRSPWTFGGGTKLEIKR

>  <ASSIGNED_CLASS>
F

$$$$
>  <BINDER>
S009-F1.56.1 (antibody, human IgG1, kappa, V domains shown, human-murine chimeric antibody, human IgG1/kappa constant regions) VH: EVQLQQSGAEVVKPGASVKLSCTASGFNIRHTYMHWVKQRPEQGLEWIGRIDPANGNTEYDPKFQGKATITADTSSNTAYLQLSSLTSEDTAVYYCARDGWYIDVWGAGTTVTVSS VL: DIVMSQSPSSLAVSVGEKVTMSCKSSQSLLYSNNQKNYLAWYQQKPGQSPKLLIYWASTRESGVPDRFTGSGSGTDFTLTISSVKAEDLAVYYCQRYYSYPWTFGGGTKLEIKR

>  <ASSIGNED_CLASS>
T

$$$$
>  <BINDER>
S009-F2.39.3 (antibody, human IgG1, kappa, V domains shown, human-murine chimeric antibody, human IgG1/kappa constant regions) VH: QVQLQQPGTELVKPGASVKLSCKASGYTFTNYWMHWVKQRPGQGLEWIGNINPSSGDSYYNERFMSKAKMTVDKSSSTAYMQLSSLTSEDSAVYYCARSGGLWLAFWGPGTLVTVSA VL: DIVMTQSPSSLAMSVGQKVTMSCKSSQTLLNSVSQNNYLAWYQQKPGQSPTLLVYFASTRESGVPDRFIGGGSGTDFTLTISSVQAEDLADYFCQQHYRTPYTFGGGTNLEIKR

>  <ASSIGNED_CLASS>
F

$$$$

Kindly consider the entry below.
Kindly determine if competition rate recorded for S009-F1.2.12 (antibody, human IgG1, kappa, V domains shown, human-murine chimeric antibody, human IgG1/kappa constant regions) VH: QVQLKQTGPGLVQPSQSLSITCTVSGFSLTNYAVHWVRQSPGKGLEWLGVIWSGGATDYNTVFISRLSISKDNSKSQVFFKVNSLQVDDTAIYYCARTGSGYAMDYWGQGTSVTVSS VL: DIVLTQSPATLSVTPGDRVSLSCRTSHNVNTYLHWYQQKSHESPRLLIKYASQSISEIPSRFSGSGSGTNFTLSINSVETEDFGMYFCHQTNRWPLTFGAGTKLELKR is above or exactly 60%.
T
